All figures here come from patent US12209087B2.

# target: full length AKT E17K (Homo sapiens, UniProt P31749, E17K)
# Construct: host or cells: HEK-293 (ATCC CRL-1573)
# Sequence (P31749 whole entry E17K): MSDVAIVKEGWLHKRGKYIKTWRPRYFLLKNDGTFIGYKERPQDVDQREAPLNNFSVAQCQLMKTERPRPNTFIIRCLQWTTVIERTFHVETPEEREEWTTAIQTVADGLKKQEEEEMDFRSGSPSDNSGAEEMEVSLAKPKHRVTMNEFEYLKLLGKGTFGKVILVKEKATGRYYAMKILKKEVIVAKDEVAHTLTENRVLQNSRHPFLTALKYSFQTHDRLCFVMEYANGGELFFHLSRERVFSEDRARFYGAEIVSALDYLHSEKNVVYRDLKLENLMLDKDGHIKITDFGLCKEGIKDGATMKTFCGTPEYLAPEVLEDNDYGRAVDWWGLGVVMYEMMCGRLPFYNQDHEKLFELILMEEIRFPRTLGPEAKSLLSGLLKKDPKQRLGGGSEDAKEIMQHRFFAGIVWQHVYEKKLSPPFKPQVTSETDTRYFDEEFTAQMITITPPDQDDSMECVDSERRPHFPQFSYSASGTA
# assay summary: NanoBRET Target Engagement (TE) Assay
# Format: cell-based
# condition: competitive displacement of tracer in cells, read-out: AKT1 E17K IC50
pIC50: −log10 of the molar value.
measured attribute: pIC50

Examples with their reported pIC50 follow.
# smiles str, pIC50
records = [
    ("N#Cc1nccc(NC2CCN(Cc3ccc(-n4c(-c5nccnc5N)nc5ccc(-c6ccc(OCF)nc6)nc54)cc3)CC2)n1", "> 7.82"),
    ("[2H]C([2H])([2H])N(c1ccnc(C#N)n1)C1CCN(C([2H])([2H])c2ccc(-n3c(-c4cccnc4N)nc4cccnc43)cc2)CC1", "7.22 to 7.82"),
]

Okay, now this compound:
Note to self: pIC50 recorded for "Cn1ncnc1-c1ccc2nc(-c3cccnc3N)n(-c3ccc(CN4CCC(Nc5ccnc(C#N)n5)CC4)cc3)c2n1" was > 7.82
